target_or_test_system: JAK3 (Homo sapiens, UniProt P52333)
Construct: endogenous in cells; host or cells: Molt4 (ATCC CRL-1582) and Ramos (ATCC CRL-1596) cell lysate; mixed Molt4/Ramos lysate 1:2
Sequence (P52333 whole entry): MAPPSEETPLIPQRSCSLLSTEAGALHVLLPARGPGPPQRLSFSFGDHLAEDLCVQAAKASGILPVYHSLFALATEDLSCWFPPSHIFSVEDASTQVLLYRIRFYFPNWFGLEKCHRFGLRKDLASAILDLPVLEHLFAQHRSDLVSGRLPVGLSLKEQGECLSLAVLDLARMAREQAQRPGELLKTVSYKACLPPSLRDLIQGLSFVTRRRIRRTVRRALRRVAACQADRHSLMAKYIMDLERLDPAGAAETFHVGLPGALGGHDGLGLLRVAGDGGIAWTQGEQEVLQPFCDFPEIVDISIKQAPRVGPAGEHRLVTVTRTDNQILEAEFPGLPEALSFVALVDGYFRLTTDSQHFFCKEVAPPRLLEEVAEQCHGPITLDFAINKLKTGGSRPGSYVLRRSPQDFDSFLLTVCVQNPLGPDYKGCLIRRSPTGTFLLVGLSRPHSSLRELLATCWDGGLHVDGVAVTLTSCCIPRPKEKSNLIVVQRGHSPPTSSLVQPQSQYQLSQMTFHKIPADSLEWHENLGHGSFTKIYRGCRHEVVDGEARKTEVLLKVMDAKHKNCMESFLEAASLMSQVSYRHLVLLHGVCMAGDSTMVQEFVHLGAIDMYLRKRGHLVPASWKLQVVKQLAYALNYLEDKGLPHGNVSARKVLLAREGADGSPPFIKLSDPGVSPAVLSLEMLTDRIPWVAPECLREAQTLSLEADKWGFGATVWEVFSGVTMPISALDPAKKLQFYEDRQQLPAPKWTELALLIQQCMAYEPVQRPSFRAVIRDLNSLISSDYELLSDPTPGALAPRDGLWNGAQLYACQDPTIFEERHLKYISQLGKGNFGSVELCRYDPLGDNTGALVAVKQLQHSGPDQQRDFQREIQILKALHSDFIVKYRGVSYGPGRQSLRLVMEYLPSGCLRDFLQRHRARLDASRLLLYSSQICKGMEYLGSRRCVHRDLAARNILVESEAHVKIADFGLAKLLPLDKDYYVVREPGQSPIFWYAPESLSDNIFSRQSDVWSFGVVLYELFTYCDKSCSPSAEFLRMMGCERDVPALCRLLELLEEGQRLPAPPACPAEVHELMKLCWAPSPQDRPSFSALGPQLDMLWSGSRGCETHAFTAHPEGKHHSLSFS
protocol: Kinobeads assay, JAK3 (competition binding in cell lysate, dot blot detection)
test_parameters: mixed Molt4/Ramos lysate
pIC50: −log10 of the molar value.
measured_endpoint: pIC50

Reported JAK3 (Homo sapiens, UniProt P52333) pIC50 for item CS(=O)(=O)N1CCCC(Cn2ncc3cnc(Nc4cnn(CC(F)F)c4)nc32)C1 (stereo not drawn) was > 7.00

Reported JAK3 (Homo sapiens, UniProt P52333) pIC50 for item C[C@H]1CCCC[C@H]1n1ncc2cnc(Nc3cnn(C)c3)nc21 (racemic) was 6.00 to 7.00

Reported JAK3 (Homo sapiens, UniProt P52333) pIC50 for item COCC(=O)N1CCCC(Cn2ncc3cnc(Nc4cnn(C)c4)nc32)C1 (stereo not drawn) was > 7.00

Reported JAK3 (Homo sapiens, UniProt P52333) pIC50 for item CC(C1CCCCC1)n1ncc2cnc(Nc3cnn(C)c3)nc21 (stereo not drawn) was 6.00 to 7.00

Reported JAK3 (Homo sapiens, UniProt P52333) pIC50 for item COCCCN1CCCC(Cn2ncc3cnc(Nc4cnn(C)c4)nc32)C1 (stereo not drawn) was 6.00 to 7.00

Reported JAK3 (Homo sapiens, UniProt P52333) pIC50 for item Cn1cc(Nc2ncc3cnn(CC4CCCN(CCCS(C)(=O)=O)C4)c3n2)cn1 (stereo not drawn) was > 7.00

Reported JAK3 (Homo sapiens, UniProt P52333) pIC50 for item COC(=O)N1CCCC(Cn2ncc3cnc(Nc4cnn(C)c4)nc32)C1 (stereo not drawn) was 6.00 to 7.00

Reported JAK3 (Homo sapiens, UniProt P52333) pIC50 for item C[C@H]1CCC[C@H](n2ncc3cnc(Nc4cnn(C)c4)nc32)C1 (racemic) was > 7.00

Reported JAK3 (Homo sapiens, UniProt P52333) pIC50 for item Cn1cc(Nc2ncc3cnn(CC4CCCCC4)c3n2)cn1 was > 7.00
